# TEST SYSTEM: Adenosine receptor A1 (Homo sapiens)
# PROTOCOL DETAILS: Displacement of [3H]R-PIA from human recombinant adenosine A1 receptor expressed in CHO cells at 10 uM after 60 mins by liquid scintillation counting
# Type: cell-based
Tick YES if inhibition is 10% or greater. Tick NO if inhibition is less than 10%.

Worked examples, 5 compounds total:
>  <SMILES STRUCTURE>
CNC(=O)[C@@]12C[C@@H]1[C@@H](n1cnc3c(NC)nc(C#Cc4ccccn4)nc31)[C@H](O)[C@@H]2O

>  <GROUP LABEL>
YES

$$$$
>  <SMILES STRUCTURE>
CNC(=O)[C@@]12C[C@@H]1[C@@H](n1cnc3c(NCc4cccc(Cl)c4)nc(C#Cc4ccc(-c5ccccc5)cc4)nc31)[C@H](O)[C@@H]2O

>  <GROUP LABEL>
NO

$$$$
>  <SMILES STRUCTURE>
CNC(=O)[C@@]12C[C@@H]1[C@@H](n1cnc3c(NC)nc(C#Cc4ccc(Cl)cc4)nc31)[C@H](O)[C@@H]2O

>  <GROUP LABEL>
YES

$$$$
>  <SMILES STRUCTURE>
CNC(=O)[C@@]12C[C@@H]1[C@@H](n1cnc3c(NC)nc(C#Cc4ccc(F)cc4)nc31)[C@H](O)[C@@H]2O

>  <GROUP LABEL>
YES

$$$$
>  <SMILES STRUCTURE>
CCc1ccc(C#Cc2nc(NC)c3ncn([C@H]4[C@H](O)[C@H](O)[C@]5(C(=O)NC)C[C@H]45)c3n2)cc1

>  <GROUP LABEL>
YES

$$$$

IN: hey, is inhibition for this one >= 10%? CNC(=O)[C@@]12C[C@@H]1[C@@H](n1cnc3c(NC)nc(C#Cc4ccccc4)nc31)[C@H](O)[C@@H]2O
OUT: YES

IN: Please indicate if the recorded inhibition for CNC(=O)[C@@]12C[C@@H]1[C@@H](n1cnc3c(NCc4cccc(Cl)c4)nc(C#Cc4ccc5ccc6cccc7ccc4c5c67)nc31)[C@H](O)[C@@H]2O meets or exceeds 10%.
OUT: NO
